Where these numbers come from: patent US8399465B2

target: recombinant human LTA4 hydrolase (rhLTA4H) (Homo sapiens, UniProt P09960); construct: made in house; host or cells: Spodoptera frugiperda (Sf-9) cells, baculovirus (pFastBac1); assay: Recombinant human LTA4 hydrolase assay for LTA4 hydrolase inhibitor activity; type: biochemical; conditions: rhLTA4H, LTB4 by immunoassay; single determination or average of two or more; mark after value = form tested: ′ free base, ″ hydrochloride, ^ formate; read-out: IC50
pIC50: −log10 of the molar value. Where a name gives a salt, the structure may show the parent alone.
Reported values of pIC50 for individual entries
recorded metric: pIC50

- compound: "c1cnc2nc(Oc3ccc4c(CN5CCC(N6CCCC6)CC5)coc4c3)sc2c1 [Example 283, formate]"
  study target: "recombinant human LTA4 hydrolase (rhLTA4H) (Homo sapiens, UniProt P09960)"
  value measured: 7.46
- compound: "c1cnc2nc(Oc3ccc4c(CN5CCc6sc7ccccc7c6C5)c[nH]c4c3)sc2c1 [Example 34, formate]"
  study target: "recombinant human LTA4 hydrolase (rhLTA4H) (Homo sapiens, UniProt P09960)"
  value measured: 7.70
- compound: "CC(=O)N1C[C@@H]2C[C@H]1CN2Cc1coc2cc(Oc3nc4cnccc4s3)ccc12 [Example 222]"
  study target: "recombinant human LTA4 hydrolase (rhLTA4H) (Homo sapiens, UniProt P09960)"
  value measured: 6.44

###

Biological target: recombinant human LTA4 hydrolase (rhLTA4H) (Homo sapiens, UniProt P09960)
Construct: made in house; host or cells: Spodoptera frugiperda (Sf-9) cells, baculovirus (pFastBac1)
Sequence (P09960 1-611): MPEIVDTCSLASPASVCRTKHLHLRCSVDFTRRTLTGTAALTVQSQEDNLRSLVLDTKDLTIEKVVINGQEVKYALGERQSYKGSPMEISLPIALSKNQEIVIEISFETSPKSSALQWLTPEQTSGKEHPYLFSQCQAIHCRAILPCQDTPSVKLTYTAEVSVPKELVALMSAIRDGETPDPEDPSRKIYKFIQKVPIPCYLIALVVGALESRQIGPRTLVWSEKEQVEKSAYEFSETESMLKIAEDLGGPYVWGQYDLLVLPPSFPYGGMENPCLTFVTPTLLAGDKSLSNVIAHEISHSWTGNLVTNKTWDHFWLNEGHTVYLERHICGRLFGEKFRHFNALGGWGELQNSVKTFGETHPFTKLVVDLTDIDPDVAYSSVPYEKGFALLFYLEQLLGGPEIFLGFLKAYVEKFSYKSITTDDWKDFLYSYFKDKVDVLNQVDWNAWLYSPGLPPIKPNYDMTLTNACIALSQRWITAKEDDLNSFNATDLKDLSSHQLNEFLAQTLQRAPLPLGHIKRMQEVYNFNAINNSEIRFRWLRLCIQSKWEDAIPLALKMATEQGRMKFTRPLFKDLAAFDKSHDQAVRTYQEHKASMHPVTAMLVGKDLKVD
Experiment: Recombinant human LTA4 hydrolase assay for LTA4 hydrolase inhibitor activity
Format: biochemical
Conditions: rhLTA4H, LTB4 by immunoassay; single determination or average of two or more; mark after value = form tested: ′ free base, ″ hydrochloride, ^ formate; read-out: IC50
pIC50: −log10 of the molar value. Structures can show the parent of a compound that is named as a salt.

- compound: "CC(=O)N1C[C@@H]2C[C@H]1CN2Cc1coc2cc(Oc3nc4cccnc4s3)ccc12 [Example 221]"
  result qualifier: "="
  pIC50: 6.64
- compound: "CC(=O)N(C(C)C)C1CCN(Cc2coc3cc(Oc4nc5ncccc5s4)ccc23)CC1 [Example 323]"
  result qualifier: "="
  pIC50: 8.05
- compound: "CC(=O)N1CCC2(CCN(Cc3coc4cc(Oc5nc6ncccc6s5)ccc34)CC2)C1 [Example 265]"
  result qualifier: ">"
  pIC50: 9.00
- compound: "CC(=O)N1CCN(Cc2coc3cc(Oc4nc5ncccc5s4)ccc23)CC1 [Example 196, formate]"
  result qualifier: "="
  pIC50: 7.96
